Experiment: Kinetics of potential prodrugs as substrates for carboxypeptidase G2 was determined and reported as apparent second order constant
Format: ADME
Field: k cat/Km. Provide a value for each of the molecules that follow.
Numbers only, in M⁻¹ s⁻¹.

Would you please look over these solved cases?
{"Chem smiles": "CS(=O)(=O)OCCN(CCCl)c1ccc(C(=O)N[C@@H](CCC(=O)O)C(=O)O)cc1F", "Measurement label": "k cat/Km", "Readout value": "1.02e+08"}
{"Chem smiles": "O=C(O)CC[C@H](NC(=O)c1ccc(N(CCCl)CCCl)cc1F)C(=O)O", "Measurement label": "k cat/Km", "Readout value": "3.1e+07"}
{"Chem smiles": "CS(=O)(=O)OCCN(CCOS(C)(=O)=O)c1ccc(C(=O)N[C@@H](CCC(=O)O)C(=O)O)cc1F", "Measurement label": "k cat/Km", "Readout value": "3.3e+07"}

Return reported k cat/Km values for all items listed beneath this line.
1. CS(=O)(=O)OCCN(CCCl)c1ccc(C(=O)N[C@@H](CCC(=O)O)C(=O)O)c(F)c1
2. CS(=O)(=O)OCCN(CCCl)c1ccc(C(=O)N[C@@H](CCC(=O)O)C(=O)O)cc1
3. O=C(O)CC[C@H](NC(=O)c1ccc(N(CCCl)CCCl)c(F)c1)C(=O)O

Result:
1: 1.9e+07; 2: 1.71e+08; 3: 1.03e+08

* * *

Assay: Chemical half-life in percholate at 37 degree was determined
Assay type: ADME
Conditions: perchlorate solution
I'd appreciate it if you could label each record using half-life and these ranges: L (below 0.1 h), M (0.1 h to below 3 h), H (3 h or more)

Solved entries (count: 8):
{"Chem smiles": "CS(=O)(=O)OCCN(CCOS(C)(=O)=O)c1ccc(C(=O)N[C@@H](CCC(=O)O)C(=O)O)cc1F", "Assigned class": "M"}
{"Chem smiles": "CS(=O)(=O)OCCN(CCCl)c1ccc(C(=O)N[C@@H](CCC(=O)O)C(=O)O)cc1", "Assigned class": "H"}
{"Chem smiles": "CS(=O)(=O)OCCN(CCCl)c1ccc(C(=O)O)cc1", "Assigned class": "M"}
{"Chem smiles": "CS(=O)(=O)OCCN(CCCl)c1ccc(C(=O)N[C@@H](CCC(=O)O)C(=O)O)cc1F", "Assigned class": "M"}
{"Chem smiles": "CS(=O)(=O)OCCN(CCOS(C)(=O)=O)c1ccc(C(=O)O)cc1F", "Assigned class": "L"}
{"Chem smiles": "CS(=O)(=O)OCCN(CCCl)c1ccc(C(=O)O)c(F)c1", "Assigned class": "H"}
{"Chem smiles": "O=C(O)CC[C@H](NC(=O)c1ccc(N(CCCl)CCCl)cc1)C(=O)O", "Assigned class": "H"}
{"Chem smiles": "O=C(O)CC[C@H](NC(=O)c1ccc(N(CCCl)CCCl)c(F)c1)C(=O)O", "Assigned class": "M"}

--- query ---
Q: Input CS(=O)(=O)OCCN(CCCl)c1ccc(C(=O)O)cc1F ; output its category
Result: L

* * *

Field: k cat. Provide a value for each of the compounds that follow.
Assay: Kinetics of potential prodrugs as substrates for carboxypeptidase G2 was determined and reported as first order constant
Format: ADME
One number for each entry, in s⁻¹.

Would you please look over these solved cases?
{"Chem smiles": "CS(=O)(=O)OCCN(CCCl)c1ccc(C(=O)N[C@@H](CCC(=O)O)C(=O)O)c(F)c1", "k cat [s⁻¹]": 213}
{"Chem smiles": "CS(=O)(=O)OCCN(CCOS(C)(=O)=O)c1ccc(C(=O)N[C@@H](CCC(=O)O)C(=O)O)cc1F", "k cat [s⁻¹]": 565}
{"Chem smiles": "CS(=O)(=O)OCCN(CCCl)c1ccc(C(=O)N[C@@H](CCC(=O)O)C(=O)O)cc1", "k cat [s⁻¹]": 583}
{"Chem smiles": "CS(=O)(=O)OCCN(CCCl)c1ccc(C(=O)N[C@@H](CCC(=O)O)C(=O)O)cc1F", "k cat [s⁻¹]": 614}

Return reported k cat values for all items listed beneath this line.
1. O=C(O)CC[C@H](NC(=O)c1ccc(N(CCCl)CCCl)cc1F)C(=O)O
2. O=C(O)CC[C@H](NC(=O)c1ccc(N(CCCl)CCCl)c(F)c1)C(=O)O

Result:
1: 462; 2: 1028

* * *

Assay: Chemical half-life in percholate at 37 degree Centigrade
Assay type: ADME
Details: perchlorate solution
Measurement label: half-life (min)
One number for each entry, in min.

Q: Give the measured half-life of CS(=O)(=O)OCCN(CCOS(C)(=O)=O)c1ccc(C(=O)N[C@@H](CCC(=O)O)C(=O)O)cc1 .
Result: 42

* * *

Test: Kinetics of potential prodrugs as substrates for carboxypeptidase G2 was determined and reported as Michaelis-Menten constant
Format: ADME
Strictly below 10 µM in Km: met. Otherwise: not met.

{"Chem smiles": "CS(=O)(=O)OCCN(CCCl)c1ccc(C(=O)N[C@@H](CCC(=O)O)C(=O)O)cc1", "Assigned class": "met"}
{"Chem smiles": "O=C(O)CC[C@H](NC(=O)c1ccc(N(CCCl)CCCl)cc1F)C(=O)O", "Assigned class": "not met"}
{"Chem smiles": "CS(=O)(=O)OCCN(CCCl)c1ccc(C(=O)N[C@@H](CCC(=O)O)C(=O)O)c(F)c1", "Assigned class": "not met"}
{"Chem smiles": "CS(=O)(=O)OCCN(CCCl)c1ccc(C(=O)N[C@@H](CCC(=O)O)C(=O)O)cc1F", "Assigned class": "met"}

--- query ---
Q: Please check: Km for CS(=O)(=O)OCCN(CCOS(C)(=O)=O)c1ccc(C(=O)N[C@@H](CCC(=O)O)C(=O)O)cc1F , strictly under 10 µM or not?
Result: not met
